- EXPERIMENTAL_TARGET: T1, human CD3e/g antigen (ACRO, catalog number CDG-H52W5) (human, UniProt P07766 23-126; P09693 23-116)
- T1 construct: Bought reagent used as the Biacore analyte; also called hCD3e/g
- ASSAY_TEXT: SPR (Biacore 8K), antibody captured via anti-human Fc
Items are presented alongside their recorded kon.
Report only the number, with the unit M⁻¹ s⁻¹ understood.

Some binders with known kon results, for comparison:
binder="hAb008-19 (antibody, V domains shown, Humanized; constant regions not specified) VH: QVQLVQSGAEVKKPGASVKVSCKASGYTFTDYTVNWVRQAPGQRLEWMGYINPFNSYTKYNQKFKDRVTITRDTSASTAYMELSSLRSEDTAVYYCARSVSTYWGQGTTVTVSS VL: DVVMTQSPLSLPVTLGQPASISCKSSQSLLDSDGKTYLNWLLQRPGQSPRRLIQLVSKLNSGVPDRFSGSGSGTDFTLKISRVEAEDVGVFYCWQGTHFPRTFGGGTKLEIK" readout_type=kon test_result=219000
binder="hAb001-31 (antibody, V domains shown, Humanized; constant regions not specified) VH: QVQLVQSGAEVKKPGASVKVSCKASGYSFTNYYMHWVKQAPGQRLEWIGWTYPGNNNIKYNEKFKGRATITADTSASTAYMELSSLRSEDTAVYYCARDGYGYYFFDYWGQGTLVTVSS VL: DIVMTQSPDSLAVSLGERATMSCKSSQSLLNNRTRKNYLAWYQQKPGQPPKLLIYWASTRESGVPDRFSGSGSGTDFTLTISSLQAEDVAVYYCKQSYTLRTFGGGTKLEIK" readout_type=kon test_result=317000

--- query ---
Look up kon: hAb007-24 (antibody, V domains shown, Humanized; constant regions not specified) VH: QVQLVQSGAEVKKPGASVKVSCKASGSTFTDNYIHWVRQAPGQRLEWIGWIYPGSVNIKYNEKFKDRVTITADTSASTAYMELSSLRSEDTAVYYCARDISRYYFDYWGQGTTVTVSS VL: DIVMTQSPDSLAVSLGERATMNCKSSQSLLNSRTRKNYLAWYQQKPGQPPKLLIYWASTRESGVPDRFTGSGSGTDFTLTISSLQAEDVAVYYCKQSFILRTFGGGTKLEIK
419000
